In this section we review reported pIC50 values for a set of molecules.
Measurement target: Recombinant full length human PFKFB3 (Homo sapiens)
Assay comment: PFKFB3 kinase activity assay (ADP production, ADP-Glo)
pIC50: −log10 of the molar value.

Here's what some known entries look like.
Molecule: CC(C)OC(=O)c1ccc(-c2ccc(F)c(F)c2)cc1N1Cc2ccc(-c3c[nH]nn3)cc2C1=O [Compound 118]
Measurement target: Recombinant full length human PFKFB3 (Homo sapiens)
pIC50: > 4.70

Molecule: CCOC(=O)c1ccc(-c2ccc(F)c(F)c2)cc1N1C(=O)c2ccc(-c3cnn[nH]3)cc2C1=O [compound 167]
Measurement target: Recombinant full length human PFKFB3 (Homo sapiens)
pIC50: > 4.70

Query block: Recorded pIC50 of O=C(O)c1cc2c(cc1O)C(=O)N(c1cc(-c3ccc(F)c(F)c3)ccc1C(=O)O)C2=O [Compound 144a] , please.
Result block: > 6.30

====

Measurement target: Recombinant full length human PFKFB3 (Homo sapiens)
Assay comment: PFKFB3 kinase activity assay (ADP production, ADP-Glo)
In this section we review reported IC50 values for a set of molecules.

Smiles str: O=C(O)c1ccc(-c2ccc(F)c(F)c2)cc1N1Cc2ccc(-c3c[nH]nn3)cc2C1=O
Measurement target: Recombinant full length human PFKFB3 (Homo sapiens)
Result: < 0.5 µM

Smiles str: COC(=O)c1ccc(-c2ccc(F)c(F)c2)cc1N1Cc2ccc(C(=O)NS(C)(=O)=O)cc2C1=O
Measurement target: Recombinant full length human PFKFB3 (Homo sapiens)
Result: < 20 µM

Smiles str: O=C(O)c1ccc2c(c1)C(=O)N(c1ccc(-c3ccccc3)cc1C(=O)O)C2=O
Measurement target: Recombinant full length human PFKFB3 (Homo sapiens)
Result: < 0.5 µM

Smiles str: COC(=O)c1ccc(-c2ccccc2)cc1N1Cc2ccc(C(=O)O)cc2C1=O
Measurement target: Recombinant full length human PFKFB3 (Homo sapiens)
Result: < 20 µM

Smiles str: CC(C)OC(=O)c1ccc(-c2ccc(F)c(F)c2)cc1N1Cc2ccc(CO)cc2C1=O
Measurement target: Recombinant full length human PFKFB3 (Homo sapiens)
Result: < 20 µM

Smiles str: COc1cc2c(cc1C(=O)O)C(=O)N(c1cc(-c3ccc(F)c(F)c3)ccc1C(=O)O)C2=O
Measurement target: Recombinant full length human PFKFB3 (Homo sapiens)
Result: < 0.5 µM

Query block: Recorded IC50 of `CS(=O)(=O)NC(=O)c1ccc2c(c1)C(=O)N(c1cc(-c3ccc(F)c(F)c3)ccc1C(=O)O)C2` , please.
Result block: 2 to 5 µM

Query block: Recorded IC50 of `NC(=O)c1ccc(-c2ccccc2)cc1N1C(=O)c2ccc(-c3nnn[nH]3)cc2C1=O` , please.
Result block: 2 to 5 µM

====

Measurement target: Recombinant full length human PFKFB3 (Homo sapiens)
Assay comment: PFKFB3 kinase activity assay (ADP production, ADP-Glo)
Readout: IC50

Smiles str: NC(=O)c1[nH]nnc1-c1ccc2c(c1)C(=O)N(c1cc(-c3ccc(F)c(F)c3)ccc1C(=O)O)C2
Result: 2 to 5 µM

Query block: Recorded IC50 of `NC(=O)c1ccc2c(c1)C(=O)N(c1cc(-c3ccc(F)c(F)c3)ccc1C(=O)O)C2` , please.
Result block: 5 to 20 µM

Query block: Recorded IC50 of `O=C(O)c1ccc2c(c1)C(=O)N(c1cc(-c3ccc(F)c(F)c3)ccc1C(=O)O)C2=O` , please.
Result block: < 0.5 µM

Query block: Recorded IC50 of `CC(C)(C)OC(=O)c1ccc(-c2ccc(F)c(F)c2)cc1N1Cc2ccc(-c3c[nH]nn3)cc2C1=O` , please.
Result block: < 20 µM

====

Test system: MCF-7
Assay comment: Combination with anticancer agents, MCF-7
Type: cell-based
Conditions used: Homo sapiens, MCF7, anticancer agent alone
Readout: IC50 (µM)
The reply should be a number in µM, with the unit left off.

Query block: Recorded IC50 of NC(=O)c1cccc2cn(-c3ccc([C@@H]4CCCNC4)cc3)nc12 [Niraparib] , please.
Result block: 14.5

====

Test system: HUVEC spheroids
Assay comment: VEGF-A induced sprouting, spheroid-based cellular angiogenesis assay
Assay type: cell-based
Conditions used: Homo sapiens; 3D HUVEC model, VEGF-A 25 ng/ml, 24 hours; read-out: EC50 of inhibition of vessel sprouting
Readout: EC50 (µM)
The reply should be a number in µM, with the unit left off.

Query block: Recorded EC50 of CCN(CC)CCNC(=O)c1c(C)[nH]c(/C=C2\C(=O)Nc3ccc(F)cc32)c1C [Sunitinib, reference compound] , please.
Result block: 0.1

====

Measurement target: Recombinant full length human PFKFB3 (Homo sapiens, UniProt Q16875)
Sequence (Q16875 whole entry): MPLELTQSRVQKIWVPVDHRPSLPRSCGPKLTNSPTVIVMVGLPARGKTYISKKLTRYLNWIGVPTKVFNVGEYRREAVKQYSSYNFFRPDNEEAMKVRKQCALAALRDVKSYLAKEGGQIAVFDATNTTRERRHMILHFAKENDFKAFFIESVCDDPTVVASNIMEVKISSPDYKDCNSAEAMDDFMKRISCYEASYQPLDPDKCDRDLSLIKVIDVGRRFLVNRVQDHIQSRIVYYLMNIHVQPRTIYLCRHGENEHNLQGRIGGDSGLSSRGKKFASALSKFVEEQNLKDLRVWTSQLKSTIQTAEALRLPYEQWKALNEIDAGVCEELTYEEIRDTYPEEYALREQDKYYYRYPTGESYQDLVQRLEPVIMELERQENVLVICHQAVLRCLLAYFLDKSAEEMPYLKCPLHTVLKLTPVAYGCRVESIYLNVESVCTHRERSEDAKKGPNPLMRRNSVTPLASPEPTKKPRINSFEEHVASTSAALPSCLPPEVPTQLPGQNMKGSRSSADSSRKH
Assay comment: PFKFB3 kinase activity assay (ADP production, ADP-Glo)
In this section we review reported IC50 values for a set of compounds.

Here's what some known entries look like.
Compound: NC(=O)c1ccc(-c2ccc(F)c(F)c2)cc1N1Cc2ccc(-c3c[nH]nn3)cc2C1=O
IC50: < 20000 nM

Compound: O=C(OCCN1CCCC1)c1ccc(-c2ccc(F)c(F)c2)cc1N1Cc2ccc(-c3c[nH]nn3)cc2C1=O
IC50: < 20000 nM

Compound: O=C(O)c1ccc(-c2ccc(F)c(F)c2)cc1N1Cc2ccc(-c3nn[nH]c3C(=O)c3ccccc3)cc2C1=O
IC50: 500 to 2000 nM

Compound: CN(C)CCOC(=O)c1ccc(-c2ccc(F)c(F)c2)cc1N1Cc2ccc(-c3c[nH]nn3)cc2C1=O
IC50: < 20000 nM

Compound: O=C(O)c1ccc(-c2ccc(F)c(F)c2)cc1N1Cc2ccc(-c3nn[nH]c3CO)cc2C1=O
IC50: 5000 to 20000 nM

Query block: Recorded IC50 of `O=C(O)c1ccc(-c2ccc(F)c(F)c2)cc1N1C(=O)c2ccc(-c3c[nH]nn3)cc2C1=O` , please.
Result block: < 500 nM

Query block: Recorded IC50 of `O=C(O)c1ccc(-c2ccc(F)c(F)c2)cc1N1Cc2ccc(-c3nn[nH]c3-c3ccccc3)cc2C1=O` , please.
Result block: 500 to 2000 nM

Query block: Recorded IC50 of `O=C(O)c1ccc2c(c1)C(=O)N(c1cc(-c3ccc(Cl)c(F)c3)ccc1C(=O)O)C2=O` , please.
Result block: < 500 nM

Query block: Recorded IC50 of `O=C(O)c1ccc(-c2ccccc2)cc1N1C(=O)c2ccc(-c3nnn[nH]3)cc2C1=O` , please.
Result block: < 500 nM

Query block: Recorded IC50 of `CN(C)C(=O)c1[nH]nnc1-c1ccc2c(c1)C(=O)N(c1cc(-c3ccc(F)c(F)c3)ccc1C(=O)O)C2` , please.
Result block: 2000 to 5000 nM

Query block: Recorded IC50 of O=C(O)c1ccc(-c2ccc(F)c(F)c2)cc1N1C(=O)c2cc(Cl)c(-c3cnn[nH]3)cc2C1=O [Compound 144b] , please.
Result block: < 500 nM

Query block: Recorded IC50 of `CN(C)CCOC(=O)c1ccc(-c2ccccc2)cc1N1C(=O)c2ccc(-c3nnn[nH]3)cc2C1=O` , please.
Result block: < 500 nM

Query block: Recorded IC50 of `O=C(O)c1ccc(-c2ccc(F)c(F)c2)cc1N1Cc2ccc(-c3nnn[nH]3)cc2C1=O` , please.
Result block: 500 to 2000 nM

Query block: Recorded IC50 of `CS(=O)(=O)NC(=O)c1ccc2c(c1)C(=O)N(c1cc(-c3ccc(F)c(F)c3)ccc1C(=O)OCCN1CCCC1)C2` , please.
Result block: < 20000 nM

Query block: Recorded IC50 of `CC(=O)OCCOC(=O)c1ccc(-c2ccc(F)c(F)c2)cc1N1C(=O)c2ccc(-c3cnn[nH]3)cc2C1=O` , please.
Result block: < 20000 nM

====

Measurement target: Recombinant full length human PFKFB3 (Homo sapiens)
Assay comment: PFKFB3 kinase activity assay (ADP production, ADP-Glo)
In this section we review reported IC50 values for a set of molecules.

Here's what some known entries look like.
Molecule: COC(=O)c1ccc(-c2ccc(F)c(F)c2)cc1N1Cc2ccc(-c3nnn[nH]3)cc2C1=O
Measurement target: Recombinant full length human PFKFB3 (Homo sapiens)
Result: 5 to 20 µM

Molecule: COC(=O)c1ccc(-c2ccccc2)cc1N1Cc2ccc(C(=O)NS(C)(=O)=O)cc2C1=O
Measurement target: Recombinant full length human PFKFB3 (Homo sapiens)
Result: < 20 µM

Molecule: CCOC(=O)c1ccc(-c2ccc(F)c(F)c2)cc1N1Cc2ccc(-c3cnn[nH]3)cc2C1=O
Measurement target: Recombinant full length human PFKFB3 (Homo sapiens)
Result: < 20 µM

Molecule: COC(=O)c1ccc(-c2ccc(F)c(F)c2)cc1N1Cc2ccc(CO)cc2C1=O
Measurement target: Recombinant full length human PFKFB3 (Homo sapiens)
Result: < 20 µM

Shift focus to the following entry.
Query block: Recorded IC50 of `O=C(O)c1cc2c(cc1Br)C(=O)N(c1cc(-c3ccc(F)c(F)c3)ccc1C(=O)O)C2=O` , please.
Result block: < 0.5 µM

Source: patent US20230047816A1
